Entry source: the Immune Epitope Database (IEDB)

target: HLA-B*46:01; assay: IEDB peptide-MHC binding, purified MHC/competitive/fluorescence; filed as Kd, often an IC50 or EC50 that approximates it; bounds were set here for any values at or beyond the usual limits of such assays; conditions: source organism: Reston ebolavirus
pKd: −log10 of the molar value.
OBSERVATION TYPE: pKd

Qu. Could you share which pKd value was measured for WFQRIPLQW ?
Ans. ≤ 4.70

---

target: HLA-A*03:01; assay: IEDB peptide-MHC binding, purified MHC/direct/fluorescence; filed as Kd, often an IC50 or EC50 that approximates it; bounds were set here for any values at or beyond the usual limits of such assays; conditions: source organism: Corynebacterium glutamicum
OBSERVATION TYPE: Kd
Remember to quote the unit after the number.

Qu. Could you share which Kd value was measured for KLGDQFGRK ?
Ans. 242 nM
